# test system: Cytochrome P450 2D6 (Homo sapiens) (UniProt P10635)
# Sequence (P10635 whole entry, looked up): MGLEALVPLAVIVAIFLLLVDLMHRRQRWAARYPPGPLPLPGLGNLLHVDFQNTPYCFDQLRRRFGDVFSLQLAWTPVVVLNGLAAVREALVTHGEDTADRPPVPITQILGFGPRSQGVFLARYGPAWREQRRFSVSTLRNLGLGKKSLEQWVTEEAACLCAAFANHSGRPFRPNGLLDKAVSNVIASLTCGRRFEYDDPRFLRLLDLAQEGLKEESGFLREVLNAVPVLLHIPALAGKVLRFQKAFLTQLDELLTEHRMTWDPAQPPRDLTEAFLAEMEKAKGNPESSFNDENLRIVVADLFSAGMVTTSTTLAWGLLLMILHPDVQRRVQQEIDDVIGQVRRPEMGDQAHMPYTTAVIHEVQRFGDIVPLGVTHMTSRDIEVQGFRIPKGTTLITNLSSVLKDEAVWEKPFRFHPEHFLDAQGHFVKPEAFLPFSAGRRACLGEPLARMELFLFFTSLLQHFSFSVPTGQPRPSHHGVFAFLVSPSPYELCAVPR
# method notes: Cytochrome panel assay with activity outcomes
# condition details: recombinant CYP, pro-luciferin dealkylation, luminescence, p450-cyp2d6; series mostly up to 57.1 µM
The campaign covered roughly 16,000 compounds. About 2,600 (16%) were called active. Not shown: some 20% with an inconclusive outcome. Only a sample is shown.
test readout: AC50

{"smiles entry": "O=C(Nc1cccc(OC(=O)c2cccnc2)c1)c1cccnc1", "test readout": "AC50", "value": "inactive"}
{"smiles entry": "COc1ccc2nc(N)sc2c1", "test readout": "AC50", "value": "inactive"}
{"smiles entry": "Cc1cc2nc(SCCOC(=O)Nc3ccc(Cl)cc3)nc(C)c2cc1C", "test readout": "AC50", "value": "8.91 µM (active)"}
{"smiles entry": "O=C(c1cc(C(F)(F)F)cc(C(F)(F)F)c1)N1CCC2(CCCN(Cc3ccncc3)C2)CC1", "test readout": "AC50", "value": "inactive"}
{"smiles entry": "COc1cc(-n2ccnc2SC)c(Cl)cc1Cl", "test readout": "AC50", "value": "inactive"}
{"smiles entry": "CSc1cc2c(cc1C(F)(F)F)N(C(=O)Nc1cccnc1)CC2", "test readout": "AC50", "value": "31.6 µM (active)"}
